# Test system: CD2F1 mice, L1210 leukemia ip, survival T/C
# measurement notes: NCI In Vivo Anticancer Drug Screen. Data for tumor model L1210 Leukemia (intraperitoneal) in CD2F1 (CDF1) mice
# applied conditions: endpoint: mean survival time; dose: 100.0 mg/kg/injection; schedule: Q04DX003 (ip); vehicle: saline with Tween-80; higher = longer survival
Toxic doses and inconclusive results are not listed.
metric name: T/C

Known value: CD2F1 mice, L1210 leukemia ip, survival T/C T/C of the molecule O=C(O)C(Cl)(c1ccccc1)C(Cl)c1ccccc1 (centres undefined) equals 101 % of control

T/C for CD2F1 mice, L1210 leukemia ip, survival T/C with input `CN(C)S(=O)(=O)C=C(c1ccccc1)c1ccccc1` equals 107 % of control

Result for O=C(O)C1CCCN1C(=O)c1ccccc1 (centres undefined) , tested on CD2F1 mice, L1210 leukemia ip, survival T/C, T/C: 103 % of control

Tested on CD2F1 mice, L1210 leukemia ip, survival T/C: COC(C(O)C=O)C(O)C(O)CO (centres undefined) . Observed T/C: 96 % of control

Reported T/C (CD2F1 mice, L1210 leukemia ip, survival T/C) for entry CC(=O)NC(=O)NC(Cc1ccccc1)c1ccccc1 (centres undefined) is 104 % of control

# T/C measured on CD2F1 mice, L1210 leukemia ip, survival T/C for item `Nc1ccc2c(S(=O)(=O)O)ccc(O)c2c1` = 96 % of control

Considering NC(CSCc1ccccc1)C(=O)OCc1ccccc1 (centres undefined) , its T/C with CD2F1 mice, L1210 leukemia ip, survival T/C was recorded as 104 % of control

Here `Cc1cc(C)c(C)cc1C` was tested on CD2F1 mice, L1210 leukemia ip, survival T/C, and its T/C came to 96 % of control

Entry `C=CCSc1cccc2ccccc12` , CD2F1 mice, L1210 leukemia ip, survival T/C data, T/C value: 104 % of control

With CD2F1 mice, L1210 leukemia ip, survival T/C as the test system, `N#CC(C#N)=c1ccc(=C(C#N)C#N)cc1` showed T/C of 98 % of control

Let me check: CC(=O)OCC1OC(n2c(Br)nc3c(=O)[nH]c(N)nc32)C(OC(C)=O)C1OC(C)=O (centres undefined) , system CD2F1 mice, L1210 leukemia ip, survival T/C, measured T/C is 100 % of control

Measured on CD2F1 mice, L1210 leukemia ip, survival T/C, `c1ccc(OCCOc2ccccc2)cc1` has a documented T/C of 89 % of control

Record O=C1NC(=O)C(c2ccccc2)(C2CCC2)N1 (centres undefined) has CD2F1 mice, L1210 leukemia ip, survival T/C T/C equal to 95 % of control

Tested on CD2F1 mice, L1210 leukemia ip, survival T/C: `CCCCCCCCCCCCCCCc1nnc(SC)s1` . Observed T/C: 91 % of control

====

For each entry below, report its T/C value.
# Test system: CD2F1 mice, L1210 leukemia ip, survival T/C
# measurement notes: NCI In Vivo Anticancer Drug Screen. Data for tumor model L1210 Leukemia (intraperitoneal) in CD2F1 (CDF1) mice
# applied conditions: endpoint: mean survival time; dose: 6.25 mg/kg/injection; schedule: Q04DX003 (ip); vehicle: saline with Tween-80; higher = longer survival
Toxic doses and inconclusive results are not listed.

Kindly note the recorded T/C for CC([NH-])CC[NH-].[Cl][Pt+2][Cl] (stereo not given) , which is 151 % of control

The recorded T/C for `C=CC[As](=O)(O)c1ccccc1Cl` is 98 % of control

# compound `CCCCCCCCCCCCNC(=O)C[n+]1cccc(C(=O)Nc2ccccc2)c1` ; its T/C = 106 % of control

Notebook: CCC(C)OP(=S)(S)OC(C)CC.[Zn+2] (stereo not given) , T/C read as 93 % of control

Form: compound = `C[N+](C)(C)C1(Cc2ccc(Br)cc2)c2ccccc2-c2ccccc21` ; T/C = 88 % of control
